system.tested: T1, porcine pancreatic elastase (porcine, UniProt P00772 27-266)
T1 construct: substrate AAApNA
measurement.protocol: elastase inhibition, AAApNA substrate, OD405
Bridge positions count the residues as written; N and C are the ends. Square brackets hold non-standard residues; d marks the D form. Ends that are not written are not given here. Hyp = O=C(O)[C@@H]1C[C@@H](O)CN1
measured.metric: IC50 (nM)
Answers are plain numbers, in nM.

Below are 5 binders. Give each one its IC50.
1. LCTASIPPQCQ (disulfide 2-10 (inferred), disulfide bond between the two Cys) [EC18]
2. CAIATASIPPICQ (disulfide 1-12 (inferred), disulfide bond between the two Cys) [EC45]
3. CGILTASIPPICQ (disulfide 1-12 (inferred), disulfide bond between the two Cys) [EC33]
4. SNGNAVEDGGLCTASIPPQCY (disulfide 12-20 (inferred), disulfide bond between the two Cys; peptide name, not a potency value) [EC50]
5. ICTASIP[Hyp]ICQ (disulfide 2-10 (inferred), disulfide bond between the two Cys) [EC48]

## Output
960
47000
26500
970
550

## Input Check the records and state IC50 for LCTASNPPICQ (disulfide 2-10 (inferred), disulfide bond between the two Cys) [EC25]
## Output 1050
